Recorded values, source ChEMBL document CHEMBL1138199.

# Test system: West Nile virus
# METHOD: Inhibition of Rluc-FL-WNV replicon in Vero cells
# Format: functional, organism-based
Kindly supply the reported pEC50 values for the records listed here.
Numbers only, as −log10 of the molar value.

Examples with answers:
MOL	REPORTED MEASUREMENT
CN1CCN(C(=O)c2ccc3c(NC4CCN(Cc5ccccc5)CC4)c4ccccc4nc3c2)CC1	4.52
CCN(CC)C(=O)c1ccc2c(NCCc3c[nH]c4ccccc34)c3ccccc3nc2c1	4.60
CCN(CC)C(=O)c1cccc2c(NC3CCN(Cc4ccccc4)CC3)c3ccccc3nc12	4.66

Form field: pEC50 recorded for CN1CCN(C(=O)c2cccc3c(Oc4ccccc4)c4ccccc4nc23)CC1 with West Nile virus (enter value)
4.70
